- methodSummary: Toxicity test in mice (intravenous)
- Type: in vivo
- statedConditions: mouse, in vivo, iv
- Text: Further, the compound of Example 28 was intravenously adminstered to 3 mice at a dose of 1 g/kg and also the compounds of Examples 34 and 51 were similarly administered at a dose of 3 g/kg respectively, and the number of survivor was examined after a week.
Where a name gives a salt, the structure may show the parent alone.
The reader will find reported LD50 at 168 h values listed item by item below.
readoutType: LD50 at 168 h

compound: CO/N=C(\C(=O)N[C@@H]1C(=O)N2C(C(=O)[O-])=C(CSc3cc[n+](CC(=O)O)c4c3CCC4)CS[C@H]12)c1csc(N)n1 [Example 34, sodium salt]
readoutType: LD50 at 168 h
experimentalResult: ≥ 3000 mg/kg
//
compound: C[n+]1ccc(SCC2=C(C(=O)[O-])N3C(=O)[C@@H](NC(=O)/C(=N\OCC(=O)O)c4csc(N)n4)[C@H]3SC2)c2c1CCC2 [Example 51, sodium salt]
readoutType: LD50 at 168 h
experimentalResult: ≥ 3000 mg/kg
